target: Lysosomal alpha-glucosidase (Homo sapiens) (UniProt P10253); experiment: Confirmation of Inhibitors and Activators of Purified Human alpha-Glucosidase (AID 2115); details: purified human GAA enzyme activity; series mostly up to 76.2 µM
Records with an inconclusive call do not appear. Active and inactive are the calls of the source. Calls follow the shape of the dose curve; as a rule, active = well fitted curve in either direction with a large enough effect; inconclusive = small, poorly fitted or top-dose-only effect; inactive = flat fitted curve, though single readings scatter.
Outcome codes: active, inactive

structure_as_smiles=CC(=O)c1ccc(N2CCN(C(=O)c3ccc4c(c3)CC(=O)N4)CC2)cc1 target_or_test_system="Lysosomal alpha-glucosidase (Homo sapiens) (UniProt P10253)" assigned_label=inactive
structure_as_smiles=CC(=O)Nc1ccc(S(=O)(=O)N2CCN(c3ccc(C(C)=O)cc3)CC2)cc1 target_or_test_system="Lysosomal alpha-glucosidase (Homo sapiens) (UniProt P10253)" assigned_label=inactive
structure_as_smiles=CC(=O)c1ccc(N2CCN(S(=O)(=O)c3ccc4c(c3)CCCN4C(C)=O)CC2)cc1 target_or_test_system="Lysosomal alpha-glucosidase (Homo sapiens) (UniProt P10253)" assigned_label=inactive
structure_as_smiles=CC(=O)c1ccc(N2CCN(S(=O)(=O)c3ccc(N4CCCC4=O)cc3)CC2)cc1 target_or_test_system="Lysosomal alpha-glucosidase (Homo sapiens) (UniProt P10253)" assigned_label=inactive
structure_as_smiles=CC(=O)c1ccc(N2CCN(S(=O)(=O)c3ccc4c(c3)CCCC(=O)N4)CC2)cc1 target_or_test_system="Lysosomal alpha-glucosidase (Homo sapiens) (UniProt P10253)" assigned_label=inactive
structure_as_smiles=O=C1Cc2cc(S(=O)(=O)N3CCN(c4ccc(O)cc4)CC3)ccc2N1 target_or_test_system="Lysosomal alpha-glucosidase (Homo sapiens) (UniProt P10253)" assigned_label=active
structure_as_smiles=O=C1Cc2cc(S(=O)(=O)N3CCN(c4cccc(C(F)(F)F)c4)CC3)ccc2N1 target_or_test_system="Lysosomal alpha-glucosidase (Homo sapiens) (UniProt P10253)" assigned_label=active
structure_as_smiles=CC(=O)c1ccc(N2CCN(S(=O)(=O)c3ccc4c(c3)oc(=O)n4C)CC2)cc1 target_or_test_system="Lysosomal alpha-glucosidase (Homo sapiens) (UniProt P10253)" assigned_label=inactive
structure_as_smiles=CC(=O)c1ccc(N2CCN(S(=O)(=O)c3ccc4[nH]c(=O)oc4c3)CC2)cc1 target_or_test_system="Lysosomal alpha-glucosidase (Homo sapiens) (UniProt P10253)" assigned_label=inactive
structure_as_smiles=CC(=O)c1ccc(N2CCN(S(=O)(=O)c3ccc4c(c3)CCC(=O)N4)CC2)cc1 target_or_test_system="Lysosomal alpha-glucosidase (Homo sapiens) (UniProt P10253)" assigned_label=inactive
structure_as_smiles=O=Cc1ccc(N2CCN(S(=O)(=O)c3ccc4c(c3)CC(=O)N4)CC2)cc1 target_or_test_system="Lysosomal alpha-glucosidase (Homo sapiens) (UniProt P10253)" assigned_label=active
structure_as_smiles=CC(=O)c1ccc(N2CCN(S(=O)(=O)c3ccc4c(c3)C(=O)OC4)CC2)cc1 target_or_test_system="Lysosomal alpha-glucosidase (Homo sapiens) (UniProt P10253)" assigned_label=inactive
